// provenance: patent US7153869B2

EPO/EBP-Ig % inh @ 50 μM overview
molecular target: EBP-Ig (N-terminal 225 amino acids of the human EPO receptor joined to an Ig heavy chain) (Homo sapiens); construct: Ig heavy chain (fusion partner); made in house; host or cells: NSO cells (secreted into conditioned media); experiment: Inhibition of [125I]EPO binding to immobilized EBP-Ig (EPO binding protein-Ig), scintillation Flash plate competition assay; conditions: Table 4; 50 μM
Lab book: enter the figure in %, no units written.

Look over these answered cases.
Cc1ccc(Oc2cccc(CN(Cc3cccc(NCc4ccccc4)c3)C(CC(=O)O)C(=O)O)c2)cc1 (stereo not shown) : −2
O=C(O)CC(C(=O)O)N(Cc1cccc(NCc2ccccc2)c1)Cc1cccc(Oc2ccccc2)c1 (stereo not shown) : 20
Cc1ccc(Oc2cccc(CN(Cc3cccc(NCc4ccccc4F)c3)C(CC(=O)O)C(=O)O)c2)cc1 (stereo not shown) : −13
O=C(O)CC(C(=O)O)N(Cc1cccc(NCc2cccc(Cl)c2)c1)Cc1cccc(Oc2ccccc2)c1 (stereo not shown) : −16

INPUT: Given the compound Cc1ccc(S(=O)(=O)Nc2cccc(CN(Cc3cccc(NS(=O)(=O)c4ccc(C)cc4)c3)C(CC(=O)O)C(=O)O)c2)cc1 (stereo not shown) , what is its reported EPO/EBP-Ig % inh @ 50 μM?
OUTPUT: −7

INPUT: Could you tell me which EPO/EBP-Ig % inh @ 50 μM is on file for O=C(O)CC(C(=O)O)N(Cc1cccc(NCc2ccc(F)cc2)c1)Cc1cccc(Oc2ccccc2)c1 (stereo not shown) ?
OUTPUT: −8

INPUT: Item under review: Cc1ccc(Oc2cccc(CN(Cc3cccc(NCc4c(F)c(F)c(F)c(F)c4F)c3)C(CC(=O)O)C(=O)O)c2)cc1 (stereo not shown) . Reported EPO/EBP-Ig % inh @ 50 μM?
OUTPUT: −14

INPUT: Value lookup for EPO/EBP-Ig % inh @ 50 μM; key = Cc1ccc(Oc2cccc(CN(Cc3cccc(NCc4cccc(Cl)c4)c3)C(CC(=O)O)C(=O)O)c2)cc1 (stereo not shown)
OUTPUT: −6

INPUT: Give the measured EPO/EBP-Ig % inh @ 50 μM of Cc1ccc(C(=O)Nc2cccc(CN(Cc3cccc(NC(=O)c4ccc(C)cc4)c3)C(CC(=O)O)C(=O)O)c2)cc1 (stereo not shown) .
OUTPUT: −4

INPUT: Sample Cc1ccccc1CNc1cccc(CN(Cc2cccc(Oc3ccccc3)c2)C(CC(=O)O)C(=O)O)c1 (stereo not shown) — what was its EPO/EBP-Ig % inh @ 50 μM?
OUTPUT: −13

INPUT: What measured EPO/EBP-Ig % inh @ 50 μM goes with Cc1ccc(Oc2cccc(CN(Cc3cccc(NCc4cccc(C#N)c4)c3)C(CC(=O)O)C(=O)O)c2)cc1 (stereo not shown) ?
OUTPUT: −7

INPUT: Request the reported EPO/EBP-Ig % inh @ 50 μM associated with O=C(O)CC(C(=O)O)N(Cc1cccc(NCc2ccccc2F)c1)Cc1cccc(Oc2ccccc2)c1 (stereo not shown)
OUTPUT: −13

INPUT: Request the reported EPO/EBP-Ig % inh @ 50 μM associated with O=C(O)CC(C(=O)O)N(Cc1cccc(NCc2cccc(Br)c2)c1)Cc1cccc(Oc2ccccc2)c1 (stereo not shown)
OUTPUT: −8

###

Biological target: EBP-Ig (N-terminal 225 amino acids of the human EPO receptor joined to an Ig heavy chain) (Homo sapiens, UniProt P19235)
Construct: Ig heavy chain (fusion partner); made in house; host or cells: NSO cells (secreted into conditioned media)
Sequence (P19235 25-250 limits assumed): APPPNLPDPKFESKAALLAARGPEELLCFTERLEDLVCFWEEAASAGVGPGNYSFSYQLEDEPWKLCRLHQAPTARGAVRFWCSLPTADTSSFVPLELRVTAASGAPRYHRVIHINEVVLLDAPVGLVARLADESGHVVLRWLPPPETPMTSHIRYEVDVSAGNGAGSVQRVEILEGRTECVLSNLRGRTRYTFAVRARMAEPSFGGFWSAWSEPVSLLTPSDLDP
Assay: Inhibition of [125I]EPO binding to immobilized EBP-Ig (EPO binding protein-Ig), scintillation Flash plate competition assay
Settings: 50 μM compound; Table 19A
Experimental endpoint: EPO/EBP-Ig % inh @ 50 μM (%)
Express your answer in %, writing the number without its unit.

CC(C)(C)OC(=O)CC[C@H](NC/C=C/c1cccc(Oc2cccc(C(F)(F)F)c2)c1)C(=O)OC(C)(C)C : 23
CC(C)(C)OC(=O)CC[C@H](NC/C=C/c1ccc(-c2ccccc2)cc1)C(=O)O : 14
COC(=O)[C@H](CCC(=O)O)NC/C=C/c1ccc(-c2ccccc2)cc1.O=C(O)C(F)(F)F : 11

# input for lookup
INPUT: Query: EPO/EBP-Ig % inh @ 50 μM; subject: CC(C)(C)OC(=O)CC[C@H](NC/C=C/c1cccc(Oc2ccc(Cl)c(Cl)c2)c1)C(=O)O
OUTPUT: 19

###

Target: EBP-Ig (N-terminal 225 amino acids of the human EPO receptor joined to an Ig heavy chain) (Homo sapiens, UniProt P19235)
Construct: Ig heavy chain (fusion partner); made in house; host or cells: NSO cells (secreted into conditioned media)
Sequence (P19235 25-250 limits assumed): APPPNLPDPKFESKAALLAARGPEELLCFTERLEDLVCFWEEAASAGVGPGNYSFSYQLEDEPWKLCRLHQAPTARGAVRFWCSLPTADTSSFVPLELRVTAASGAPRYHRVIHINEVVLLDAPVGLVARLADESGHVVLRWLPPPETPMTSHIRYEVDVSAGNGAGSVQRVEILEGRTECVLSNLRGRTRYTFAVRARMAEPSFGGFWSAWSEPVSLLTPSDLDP
Assay: Inhibition of [125I]EPO binding to immobilized EBP-Ig (EPO binding protein-Ig), scintillation Flash plate competition assay
Conditions: Table 7; 50 μM
Threshold check on EPO/EBP-Ig % inh @ 50 μM: strictly below 30% is 1.0; on or above 30% is 0.0.

Worked examples follow.
COC(=O)C(CCCCNC(=O)OC(C)(C)C)N(Cc1ccc(OCc2ccccc2)cc1)Cc1ccc(OCc2ccccc2)cc1 (stereo not drawn) : 1.0
COC(=O)C(CCCCN)N(Cc1cccc(OCc2ccccc2)c1)Cc1cccc(OCc2ccccc2)c1 (stereo not drawn) : 0.0
COC(=O)C(CCCCN)N(Cc1ccc(OCc2ccccc2)cc1)Cc1cccc(NC(=O)C(C)C)c1 (stereo not drawn) : 0.0

INPUT: Problem: For the compound COC(=O)C(CCCCNC(=O)OC(C)(C)C)N(Cc1ccc(OCc2ccccc2)cc1)Cc1cccc([N+](=O)[O-])c1 (stereo not drawn) , is EPO/EBP-Ig % inh @ 50 μM under 30%?
OUTPUT: 1.0

INPUT: Is 30% strictly greater than the compound's reported EPO/EBP-Ig % inh @ 50 μM? compound: COC(=O)C(CCCCN)N(Cc1ccc(OCc2ccccc2)cc1)Cc1cccc(NC(=O)c2ccncc2)c1 (stereo not drawn)
OUTPUT: 0.0

INPUT: Is the reported EPO/EBP-Ig % inh @ 50 μM for COC(=O)C(CCCCN)N(Cc1ccc(OCc2ccccc2)cc1)Cc1cccc(NC(=O)c2ccco2)c1 (stereo not drawn) strictly below 30%?
OUTPUT: 0.0

INPUT: Does the reported EPO/EBP-Ig % inh @ 50 μM of COC(=O)C(CCCCN)N(Cc1ccc(OCc2ccccc2)cc1)Cc1cccc(NC(=O)c2ccc3ccccc3c2)c1 (stereo not drawn) stay below 30%?
OUTPUT: 0.0

INPUT: Regarding CCCCC(=O)Nc1cccc(CN(Cc2ccc(OCc3ccccc3)cc2)C(CCCCN)C(=O)OC)c1 (stereo not drawn) , kindly confirm whether its EPO/EBP-Ig % inh @ 50 μM is beneath 30%.
OUTPUT: 0.0

INPUT: Confirm or reject: EPO/EBP-Ig % inh @ 50 μM of COC(=O)C(CCCCNC(=O)OC(C)(C)C)N(Cc1cccc(OCc2ccccc2)c1)Cc1cccc(OCc2ccccc2)c1 (stereo not drawn) lies strictly below 30%
OUTPUT: 1.0

###

target: EBP-Ig (N-terminal 225 amino acids of the human EPO receptor joined to an Ig heavy chain) (Homo sapiens); construct: Ig heavy chain (fusion partner); made in house; host or cells: NSO cells (secreted into conditioned media); experiment: Inhibition of [125I]EPO binding to immobilized EBP-Ig (EPO binding protein-Ig), scintillation Flash plate competition assay; conditions: 0.5 nM [125I]EPO; 0–500 μM test compound
Experimental endpoint: IC30 μM (Inhibition of EPO binding to EBP-Ig)

O=C(O)C(CO)N(CC=Cc1ccc(-c2ccccc2)cc1)CC=Cc1ccc(-c2ccccc2)cc1 (stereo not drawn) [compound 305] : 35 µM

INPUT: Value lookup for IC30 μM (Inhibition of EPO binding to EBP-Ig); key = NCCCCC(C(=O)NCCc1ccccc1)N(CC=Cc1ccccc1)CC=Cc1ccccc1 (stereo not drawn) [compound 227]
OUTPUT: 20 µM

INPUT: Reported IC30 μM (Inhibition of EPO binding to EBP-Ig), compound O=C(O)CCC(=O)NCCCCC(C(=O)NCCOCCOCCNC(=O)C(CCCCNC(=O)CCC(=O)O)N(Cc1ccc(OCc2ccccc2)cc1)Cc1ccc(OCc2ccccc2)cc1)N(Cc1ccc(OCc2ccccc2)cc1)Cc1ccc(OCc2ccccc2)cc1 (stereo not drawn) [compound 262] : ____
OUTPUT: 1 µM

INPUT: So what does the record say about IC30 μM (Inhibition of EPO binding to EBP-Ig) for COc1cccc(CCNC(=O)C(CCCCNC(=O)CCC(=O)O)N(CC=Cc2ccccc2)CC=Cc2ccccc2)c1 (stereo not drawn) [compound 237] ?
OUTPUT: 30 µM

INPUT: Reported IC30 μM (Inhibition of EPO binding to EBP-Ig), compound O=C(O)CC(C(=O)NCCCOCCCCOCCCNC(=O)C(CC(=O)O)N(Cc1ccc(OCc2ccccc2)cc1)Cc1ccc(OCc2ccccc2)cc1)N(Cc1ccc(OCc2ccccc2)cc1)Cc1ccc(OCc2ccccc2)cc1 (stereo not drawn) [compound 243] : ____
OUTPUT: 2 µM

INPUT: Requested read-out: IC30 μM (Inhibition of EPO binding to EBP-Ig). Entry: O=C(O)CN(C/C=C/c1cccc(Oc2ccccc2)c1)C/C=C/c1cccc(Oc2ccccc2)c1 [compound 312]
OUTPUT: 10 µM
